# Test system: KG-1a
# Assay Procedure: WST-1 proliferation assay, KG-1a
# Type: cell-based
# Settings: Homo sapiens, KG-1a; WST-1, 48 hours of treatment
Measured Parameter: pIC50
Friendly reminder that pIC50 comes from taking -log10 of the concentration in mol/L.

The compound COC(=O)N(C)/N=N/c1ccc(CNC2CC(OC3CC(O)(C(=O)CO)Cc4c(O)c5c(c(O)c43)C(=O)c3c(OC)cccc3C5=O)OC(C)C2O)cc1 (stereo not shown) [Chimera 9] showed pIC50 equal to 6.40

====

# System: HEL
# Assay Procedure: WST-1 proliferation assay, HEL
# Type: cell-based, human
# Settings: WST-1, 48 hours of treatment
Measured Parameter: pIC50
Friendly reminder that pIC50 comes from taking -log10 of the concentration in mol/L.

The molecule COC(=O)N(C)/N=N/c1ccc(Cn2cc(F)c(=O)[nH]c2=O)cc1 showed pIC50 equal to 5.57

The molecule COC(=O)N(C)/N=N/c1ccc(CNc2cc3c4c(cccc4c2)C(=O)N(CCN(C)C)C3=O)cc1 showed pIC50 equal to 5.71

The molecule COC(=O)N(C)/N=N/c1ccc(COc2cc(/C=C\c3cc(OC)c(OC)c(OC)c3)ccc2OC)cc1 showed pIC50 equal to 5.79

The molecule COC(=O)N(C)/N=N/c1ccc(CNc2nc3ccc(OC(F)(F)F)cc3s2)cc1 showed pIC50 equal to 5.63

The molecule COC(=O)N(C)/N=N/c1ccc(CSc2ncnc3nc[nH]c23)cc1 showed pIC50 equal to 4.87

The measured values listed here are drawn from patent US20260151413A1.
